Data provenance: patent US20110142868A1

# TARGET_UNDER_TEST: recombinant human PAD4 (human, UniProt Q9UM07 1-663)
# Sequence (Q9UM07 whole entry): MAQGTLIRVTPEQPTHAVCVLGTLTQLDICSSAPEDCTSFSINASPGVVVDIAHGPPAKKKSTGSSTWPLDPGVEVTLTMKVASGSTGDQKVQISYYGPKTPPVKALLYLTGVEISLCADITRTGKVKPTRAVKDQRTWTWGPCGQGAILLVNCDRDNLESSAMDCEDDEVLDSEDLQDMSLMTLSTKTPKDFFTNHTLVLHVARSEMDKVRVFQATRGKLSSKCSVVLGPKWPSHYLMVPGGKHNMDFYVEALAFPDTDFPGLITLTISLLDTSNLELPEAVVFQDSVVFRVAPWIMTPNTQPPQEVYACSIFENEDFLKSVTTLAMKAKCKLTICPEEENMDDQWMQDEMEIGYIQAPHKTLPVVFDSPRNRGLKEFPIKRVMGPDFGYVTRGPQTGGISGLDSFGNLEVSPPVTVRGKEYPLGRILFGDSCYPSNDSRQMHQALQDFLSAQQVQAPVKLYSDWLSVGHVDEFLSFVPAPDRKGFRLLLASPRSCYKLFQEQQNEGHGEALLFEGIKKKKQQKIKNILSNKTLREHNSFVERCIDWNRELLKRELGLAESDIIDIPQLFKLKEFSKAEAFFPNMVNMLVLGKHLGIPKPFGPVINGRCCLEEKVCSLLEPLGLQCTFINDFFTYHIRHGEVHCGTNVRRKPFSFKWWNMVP
# TEST_METHOD_NOTES: cell-based or functional assay
Square brackets hold non-standard residues; d marks the D form. Orn(fluoroacetimidoyl) = N=C(CF)NCCC[C@H](N)C(=O)O
MEASUREMENT_TYPE: conversion of 0708-30 by PAD4, 50 µM inhibitor (0 µM: 81) (%)
# unit: % | format: bare number

Answer with reported conversion of 0708-30 by PAD4, 50 µM inhibitor (0 µM: 81) of Ac-HFD[Orn(fluoroacetimidoyl)]EWI-NH2 (SMILES CC[C@H](C)[C@H](NC(=O)[C@H](Cc1c[nH]c2ccccc12)NC(=O)[C@H](CCC(=O)O)NC(=O)[C@H](CCCNC(=N)CF)NC(=O)[C@H](CC(=O)O)NC(=O)[C@H](Cc1ccccc1)NC(=O)[C@H](Cc1c[nH]cn1)NC(C)=O)C(N)=O) [0748-01FA]
25
